Entries and their SKNSH (1 μM), activity in % of control
- measurement target: DβH (Homo sapiens, UniProt P09172)
- Construct: cellular homogenate (75 μg total protein); host or cells: SK-N-SH cells (homogenate)
- Sequence (P09172 whole entry): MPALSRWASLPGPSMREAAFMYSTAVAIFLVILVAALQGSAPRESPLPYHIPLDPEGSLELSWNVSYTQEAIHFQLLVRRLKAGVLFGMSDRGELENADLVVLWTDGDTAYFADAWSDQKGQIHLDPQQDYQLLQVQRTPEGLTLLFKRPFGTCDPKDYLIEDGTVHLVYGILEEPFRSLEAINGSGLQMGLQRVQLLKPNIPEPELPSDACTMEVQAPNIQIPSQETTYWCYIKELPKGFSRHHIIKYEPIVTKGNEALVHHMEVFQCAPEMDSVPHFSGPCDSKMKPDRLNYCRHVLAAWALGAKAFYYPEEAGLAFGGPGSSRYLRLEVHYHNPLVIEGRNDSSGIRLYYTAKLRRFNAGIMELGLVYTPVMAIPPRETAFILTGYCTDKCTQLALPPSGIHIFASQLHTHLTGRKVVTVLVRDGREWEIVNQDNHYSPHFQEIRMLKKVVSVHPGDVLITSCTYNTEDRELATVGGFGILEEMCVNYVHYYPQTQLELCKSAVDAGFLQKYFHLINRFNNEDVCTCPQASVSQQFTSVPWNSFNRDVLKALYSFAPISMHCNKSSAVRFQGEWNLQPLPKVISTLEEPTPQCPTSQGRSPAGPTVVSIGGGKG
- protocol: DβH inhibition assay in SK-N-SH cellular homogenates (tyramine to octopamine)
- Assay type: biochemical
- study conditions: SK-N-SH cell homogenate, inhibitor 1 μM

Here is how some molecules turned out for SKNSH (1 μM), activity in % of control.
CCCCN(C)CCc1[nH]c(=S)n2c1[C@@H]1C[C@]1(c1cc(F)ccc1F)C2.Cl [Example 39]; 29.8 % of control
O=C(O)Cc1[nH]c(=S)n2c1C[C@@H](c1c(F)c(F)cc(F)c1F)C2 [Example 10]; 2.1 % of control
O=C(O)Cc1[nH]c(=S)n2c1C[C@@H](c1cc(F)cc(F)c1)C2 [Example 11]; 28.5 % of control
O=C(Cc1[nH]c(=S)n2c1C[C@@H](c1cc(F)cc(F)c1)C2)N1CCOCC1 [Example 9]; 54.9 % of control
O=C(O)Cc1[nH]c(=S)n2c1[C@@H]1C[C@]1(c1c(F)ccc(Br)c1F)C2 [Example 51]; 0 % of control
CN(Cc1ccccc1)C(=O)Cc1[nH]c(=S)n2c1[C@@H]1C[C@]1(c1cc(F)ccc1F)C2 [Example 37]; 15.7 % of control

Please give the measured SKNSH (1 μM), activity in % of control for this molecule: O=Cc1[nH]c(=S)n2c1C[C@@H](c1cc(F)cc(F)c1)C2 [Example 45]
46.8 % of control

# iterate: Fc1ccc(F)c([C@]23C[C@H]2c2c(Cc4nnn[nH]4)[nH]c(=S)n2C3)c1 [Example 41]
60.7 % of control
